Listed here: items and their measured pIC50.
Biological target: UniProt Q70CQ3
Assay: USP30 Biochemical IC50 Assay
Conditions: fluorescence polarisation, TAMRA labelled peptide linked to ubiquitin; 30 min pre-incubation, read after 2 h at room temperature; read-out: IC50 range
Experimental: USP30 Biochemical IC50 Assay Dilution plates were prepared at 21 times the final concentration (2100 μM for a final concentration of 100 μM) in 50% DMSO in a 96-well polypropylene V-bottom plate (Greiner #651201). […] Reactions were initiated by the addition of 50 nM of TAMRA labelled peptide linked to ubiquitin via an iso-peptide bond as fluorescence polarisation substrate. Reactions were read immediately after addition of substrate and following a 2 h incubation at room temperature. […]
pIC50: −log10 of the molar value.

Molecule	pIC50
N#Cc1cccc(-c2ccc3nc(C4(F)CCCN(C#N)C4)[nH]c3n2)c1 (stereo in doubt) [Example 16]	7.00 to 8.00

Recorded pIC50 for N#Cc1cc(-c2cc(-c3nnc([C@@]4(F)CCCN(C#N)C4)o3)ccn2)ccn1 [Example 11] , please?
6.00 to 7.00

What do we get for N#Cc1cccc(-c2ccc3nc([C@@]4(F)CCCN(C#N)C4)[nH]c3n2)n1 [Example 21] ?
5.00 to 6.00

Continue with N#CN1CCCC(F)(c2nc3ccc(-c4ccn[nH]4)cc3[nH]2)C1 (centres unmarked) [Example 14]
5.00 to 6.00

Now consider N#Cc1ccnc(-c2ccc3oc([C@@]4(F)CCCN(C#N)C4)nc3c2)n1 [Example 24] and answer again.
6.00 to 7.00

Another molecule: N#Cc1cc(-c2ccc3oc([C@@]4(F)CCCN(C#N)C4)nc3c2)ncn1 [Example 23]
6.00 to 7.00

Now give it for N#Cc1cccc(-c2ccc3oc([C@@]4(F)CCCN(C#N)C4)nc3c2)c1 [Example 22] too.
7.00 to 8.00

Proceed to N#Cc1cc(-c2ccn3cc([C@@]4(F)CCCN(C#N)C4)nc3c2)ccn1 [Example 31]
6.00 to 7.00

====

Observed IC50 for USP30 (Homo sapiens (Human)), reported per entry below.

Compound	Measured metric	Measured value
N#Cc1cc(-c2cnc3oc([C@@]4(F)CCCN(C#N)C4)nc3c2)ccn1	IC50	0.1 to 1 µM
N#CN1CCOC(c2nc(-c3cccc(-c4ccccc4)c3)n[nH]2)C1 (stereo not drawn)	IC50	1 to 10 µM

Moving on to the next compound.
Entry under review: N#Cc1cccc(-c2cnc3oc([C@@]4(F)CCCN(C#N)C4)nc3c2)c1 (stereo in doubt) . Reported IC50?
0.1 to 1 µM
